tested on: Crimean-Congo hemorrhagic fever virus L polyprotein viral ovarian tumor (vOTU) protease domain; test: CCHFV vOTU protease inhibitors, primary screen, biochemical, Pep-AMC substrate, fluorescence (AID 651958); details: at 11.5 µM
About 2,000 (0.54%) of roughly 370,000 compounds were called active. Cut-off read from the data, not from the text of the source: active = inhibition above about 30%; inactive = the rest. The list comes from a sample in which actives are over-represented; it also holds close analogues and randomly drawn compounds.
Thanks in advance; please answer with one of these: active, inactive

# lookup: test call for CCOC(=O)NN1C(=O)c2ccccc2NC1c1ccccc1O (stereo unspecified) inactive

Entry CC(C)c1ccc(NC(=O)COC(=O)c2ccc(CN3CCCC3=O)cc2)cc1 : call = ? inactive

What did the test return for Oc1c(Cl)cc(Cl)c(Cl)c1Cc1c(O)c(Cl)cc(Cl)c1Cl ? active

Look up the recorded call for COc1ccc(/C=C2\N=C3CCCN3C2=O)cc1 in this test. inactive

What was the test verdict on O=C(C(=O)N1CCC(CNS(=O)(=O)Cc2ccccc2)CC1)c1cc2ccccc2o1 ? inactive

Hey, what did the test say about Cc1nnc(NC(=O)Nc2ccc(Cl)c(Cl)c2)s1 ? active

Short answer needed: outcome of this test for CC(C)c1ccc(OCC(=O)N2CCCN(C)CC2)cc1 ? inactive

Please let me know the test result on file for Cc1cc(C)cc(NC(=S)NCCCN2CCOCC2)c1 . inactive

I'd appreciate the recorded outcome for COCCCNS(=O)(=O)c1cccc(S(=O)(=O)c2cccc(S(=O)(=O)NCCCOC)c2)c1 from this test. inactive

Given N#C/C(=C\c1ccccc1)c1n[nH]c(Cn2cncn2)n1 , state the outcome it received in this test. inactive

Please state the recorded outcome for this compound: CCN(CC)C(=O)C1=C(C)N(Cc2ccc(F)cc2)C(=O)C(CC(=O)NCc2cccc3ccccc23)C1 (stereo unspecified) inactive

Just curious, what result did Cc1ccc(S(=O)(=O)N2CCC(=O)N([C@H](COCc3ccccc3)Cc3ccccc3)CC2)cc1 get here? inactive

I would be grateful if you could indicate the recorded call for Cc1ccc(NC(=O)c2nc[nH]c2C(=O)N[C@@H](CCCCNC(=O)OC(C)(C)C)C(=O)OC(C)(C)C)cc1 . inactive

Record request — test call for C=CCC[C@@H](CCCCC)OC(=O)/C=C/[C@@H](O)[C@H](O)C[C@H](O)CC=C active

Test call, this compound: CCCS(=O)(=O)NC(=O)C1(C)CCCN(C(=O)c2cc(C)on2)C1 (stereo unspecified) inactive

Please state the recorded outcome for this compound: O=C1[C@@H](c2ccccc2)[C@@H](c2ccccc2)N1c1ccccc1 inactive
